Molecular target: T1, human plasma Kallikrein (human, UniProt P03952 20-638, limits assumed)
T1 construct: also called hPK; human PK
T1 sequence (P03952 20-638 limits assumed): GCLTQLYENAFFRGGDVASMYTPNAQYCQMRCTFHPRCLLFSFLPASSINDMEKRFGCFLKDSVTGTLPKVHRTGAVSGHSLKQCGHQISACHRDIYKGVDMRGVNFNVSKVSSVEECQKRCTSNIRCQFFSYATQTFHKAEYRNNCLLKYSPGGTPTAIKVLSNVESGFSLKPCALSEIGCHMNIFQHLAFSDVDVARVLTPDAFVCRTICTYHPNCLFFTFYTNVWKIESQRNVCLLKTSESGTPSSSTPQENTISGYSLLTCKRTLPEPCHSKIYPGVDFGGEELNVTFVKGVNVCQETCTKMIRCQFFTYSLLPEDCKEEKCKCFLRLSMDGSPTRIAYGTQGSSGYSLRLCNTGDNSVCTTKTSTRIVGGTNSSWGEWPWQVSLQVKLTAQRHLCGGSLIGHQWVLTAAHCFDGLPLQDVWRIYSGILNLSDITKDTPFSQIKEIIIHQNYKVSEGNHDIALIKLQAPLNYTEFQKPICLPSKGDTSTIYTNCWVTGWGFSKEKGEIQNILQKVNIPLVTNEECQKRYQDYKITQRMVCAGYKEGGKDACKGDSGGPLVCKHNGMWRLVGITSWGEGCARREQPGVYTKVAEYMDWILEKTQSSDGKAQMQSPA
Experiment: enzyme inhibition assay
Numbered stars: 1 amine (or outer) side, 2 acyl side, 3 side chain; on linkers, the order of the positions; unused ones are H or OH. Bridge positions count the residues as written; N and C are the ends. Square brackets hold non-standard residues; d marks the D form. TBMB = c1c(C[*:1])cc(C[*:3])cc1C[*:2]
Catalogue of Ki values

Please review the entries below; each comes with its answer.
- BINDER: "Ac-CSWPA[dR]CLHQDLC-NH2 (linker 1-7-13 via TBMB; SMILES CC(=O)N[C@H]1CSCc2cc3cc(c2)CSC[C@H](NC(=O)[C@@H](CCCNC(=N)N)NC(=O)[C@H](C)NC(=O)[C@@H]2CCCN2C(=O)[C@H](Cc2c[nH]c4ccccc24)NC(=O)[C@H](CO)NC1=O)C(=O)N[C@@H](CC(C)C)C(=O)N[C@@H](Cc1c[nH]cn1)C(=O)N[C@@H](CCC(N)=O)C(=O)N[C@@H](CC(=O)O)C(=O)N[C@@H](CC(C)C)C(=O)N[C@H](C(N)=O)CSC3) [Ac-(06-34-18) D-Arg5]"
  EXPERIMENTAL RESULT: "52 nM"
- BINDER: "Ac-CS[dW]PARCLHQDLC-NH2 (linker 1-7-13 via TBMB; SMILES CC(=O)N[C@H]1CSCc2cc3cc(c2)CSC[C@H](NC(=O)[C@H](CCCNC(=N)N)NC(=O)[C@H](C)NC(=O)[C@@H]2CCCN2C(=O)[C@@H](Cc2c[nH]c4ccccc24)NC(=O)[C@H](CO)NC1=O)C(=O)N[C@@H](CC(C)C)C(=O)N[C@@H](Cc1c[nH]cn1)C(=O)N[C@@H](CCC(N)=O)C(=O)N[C@@H](CC(=O)O)C(=O)N[C@@H](CC(C)C)C(=O)N[C@H](C(N)=O)CSC3) [Ac-(06-34-18) D-Trp2]"
  EXPERIMENTAL RESULT: "7560 nM"
- BINDER: "Ac-CSWPAR[dC]LHQDLC-NH2 (linker 1-7-13 via TBMB; SMILES CC(=O)N[C@H]1CSCc2cc3cc(c2)CSC[C@@H](NC(=O)[C@H](CCCNC(=N)N)NC(=O)[C@H](C)NC(=O)[C@@H]2CCCN2C(=O)[C@H](Cc2c[nH]c4ccccc24)NC(=O)[C@H](CO)NC1=O)C(=O)N[C@@H](CC(C)C)C(=O)N[C@@H](Cc1c[nH]cn1)C(=O)N[C@@H](CCC(N)=O)C(=O)N[C@@H](CC(=O)O)C(=O)N[C@@H](CC(C)C)C(=O)N[C@H](C(N)=O)CSC3) [Ac-(06-34-18) D-Cys2]"
  EXPERIMENTAL RESULT: "234 nM"

Enquiry: For Ac-CSWP[dA]RCLHQDLC-NH2 (linker 1-7-13 via TBMB; SMILES CC(=O)N[C@H]1CSCc2cc3cc(c2)CSC[C@H](NC(=O)[C@H](CCCNC(=N)N)NC(=O)[C@@H](C)NC(=O)[C@@H]2CCCN2C(=O)[C@H](Cc2c[nH]c4ccccc24)NC(=O)[C@H](CO)NC1=O)C(=O)N[C@@H](CC(C)C)C(=O)N[C@@H](Cc1c[nH]cn1)C(=O)N[C@@H](CCC(N)=O)C(=O)N[C@@H](CC(=O)O)C(=O)N[C@@H](CC(C)C)C(=O)N[C@H](C(N)=O)CSC3) [Ac-(06-34-18) D-Ala4] , what is its reported Ki?
Return: 1200 nM

Enquiry: For Ac-CSW[dP]ARCLHQDLC-NH2 (linker 1-7-13 via TBMB; SMILES CC(=O)N[C@H]1CSCc2cc3cc(c2)CSC[C@H](NC(=O)[C@H](CCCNC(=N)N)NC(=O)[C@H](C)NC(=O)[C@H]2CCCN2C(=O)[C@H](Cc2c[nH]c4ccccc24)NC(=O)[C@H](CO)NC1=O)C(=O)N[C@@H](CC(C)C)C(=O)N[C@@H](Cc1c[nH]cn1)C(=O)N[C@@H](CCC(N)=O)C(=O)N[C@@H](CC(=O)O)C(=O)N[C@@H](CC(C)C)C(=O)N[C@H](C(N)=O)CSC3) [Ac-(06-34-18) D-Pro3] , what is its reported Ki?
Return: 680 nM
